System: SW-620
Measurement protocol: NCI tumour cell line growth inhibition, 48 h
The source made the active and inactive calls. Rule as the data show it: active = GI50 up to about 1.1 µM and inactive = higher.
API: response.call in active, inactive

These recorded examples may help you get a feel for the data.
{"Compound": "Cc1nnc2sc(-c3ccc(N)cc3)nn12", "Category": "inactive"}
{"Compound": "O=C(O)c1cccc(NC(C(=O)c2ccccc2)c2ccccc2)c1 (stereo unspecified)", "Category": "inactive"}
{"Compound": "CC(C)c1ccccc1[S+]([O-])c1ccccc1C(C)(C)O (stereo unspecified)", "Category": "inactive"}
{"Compound": "CC[C@]12C=CCN3CC[C@@]4(c5cc(Br)c(OC)cc5N(C)[C@H]4[C@@](O)(C(=O)NC(Cc4c[nH]c5ccccc45)C(=O)OC)[C@@H]1O)[C@@H]32 (stereo partly specified)", "Category": "inactive"}
{"Compound": "Cc1ccc2c(=O)cc(-c3ccc(-c4ccccc4)s3)[nH]c2n1", "Category": "inactive"}
{"Compound": "Brc1ccc(/N=N/N2CCCC2)cc1", "Category": "inactive"}

Recorded test call requested for CC1=C(O)C(=O)C2=C(C1=O)[C@@H]([C@@H](C)C/C=C/C(C)(C)O)CC[C@@H]2C
inactive

Recorded test call requested for CNc1ccc2c(c1)Cc1ccccc1-2
inactive

Recorded test call requested for c1ccc(NN(Cc2cnccn2)c2ccccc2)cc1
inactive

Recorded test call requested for CC(=O)OC/C=C(/C=C/CNC1CCCCC1)OC(C)=O
inactive

Recorded test call requested for CCOc1ccc(/N=N/C2C(=O)N(C(=O)CC(=O)Nc3ccc(Cl)cc3)N=C2C)cc1 (stereo unspecified)
inactive

Recorded test call requested for CC(=O)NC1C(OCC(=O)NCCNc2ccc([N+](=O)[O-])c3[nH]c4ccccc4c(=O)c23)C(O)C(CO)OC1(C)OCc1ccccc1 (stereo unspecified)
inactive

* * *

Tested on: MOLT-4
Measurement protocol: NCI tumour cell line growth inhibition, 48 h
Calls of active or inactive are those of the source. Rule as the data show it: active = GI50 up to about 1.1 µM and inactive = higher.
Listing of recorded GI50 by entry.

Worked cases, answers included:
{"Compound": "CN1C(=O)c2ccccc2C(O)(c2ccccc2)C1(O)c1ccccc1 (stereo unspecified)", "GI50": "48.1 µM (inactive)"}
{"Compound": "CNc1ccc2c(c1)Cc1ccccc1-2", "GI50": "17 µM (inactive)"}
{"Compound": "CC1(C)OC(=O)C(C)(C)C(=O)O1", "GI50": "> 100 µM (inactive)"}
{"Compound": "CC(C)(C)OC(=O)c1ccc(NCC2=CC(=O)C=CC2=O)cc1", "GI50": "1.97 µM (inactive)"}
{"Compound": "CCOP(=O)(OCC)C1C(=O)O[C@H]2CCCC[C@@H]12 (stereo partly specified)", "GI50": "> 100 µM (inactive)"}

Give a short answer stating reported GI50 for COc1cc2c(c(OC)c1OC)-c1ccc(SC)c(=O)cc1C(CC(=O)Oc1ccc([N+](=O)[O-])cc1)C2 (stereo unspecified) .
0.113 µM (active)

Give a short answer stating reported GI50 for CC(=O)NC1C(OCc2ccccc2)OC(CO)C(O)C1OCC(=O)NC(C(=O)NC(CCC(=O)NCCCCCC(=O)Nc1ccc2c(c1)CN1C(=O)c3ccccc3C1=N2)C(N)=O)C(C)C (stereo unspecified) .
> 100 µM (inactive)

Give a short answer stating reported GI50 for COC(=O)/C(=N/NC(C)(C)C)C(C(=O)C=C(C)C)C(=O)C(=O)Nc1ccc(Cl)cc1C (stereo unspecified) .
> 100 µM (inactive)

Give a short answer stating reported GI50 for O=c1ccc(-c2ccc(-n3ccnc3)cc2)nn1CCO .
> 100 µM (inactive)
